# Test system: HEK-293 cells
# PROTOCOL NOTES: Toxicity (Table 2; cytotoxicity in the compound screen)

STRUCTURE AS SMILES | SYSTEM | Toxicity
COc1ccc(-c2nnc(Nc3nc4c(F)cccc4s3)o2)cc1 | HEK-293 cells | Non-toxic
Fc1ccc(-c2nnc(Nc3nc4ccc(F)cc4s3)o2)cc1 | HEK-293 cells | > 50%
Fc1cccc2sc(Nc3nnc(-c4ccccc4)o3)nc12 | HEK-293 cells | Non-toxic
COc1ccc(-c2nnc(Nc3nc4ccc(SC)cc4s3)o2)cc1 | HEK-293 cells | > 50%
Fc1ccc(-c2nnc(Nc3nc4c(F)cccc4s3)o2)cc1 | HEK-293 cells | Non-toxic
COc1ccc(-c2nnc(Nc3nc4cc(OC)c(OC)cc4s3)o2)cc1 | HEK-293 cells | Non-toxic
COc1ccc(-c2nnc(Nc3nc4c(OC)cccc4s3)o2)c(OC)c1 | HEK-293 cells | 30%
COc1cccc2sc(Nc3nnc(-c4ccc(F)cc4)o3)nc12 | HEK-293 cells | Non-toxic
Fc1ccc2nc(Nc3nnc(-c4ccccc4Cl)o3)sc2c1 | HEK-293 cells | > 50%
COc1ccc(-c2nnc(Nc3nc4cc(OC)ccc4s3)o2)cc1 | HEK-293 cells | > 50%
